// provenance: PubChem BioAssay (EPA / NIEHS)

Read-out: Transforming growth factor beta 1 (TGFb1), TGFB1 (gene 7040)
Assay: BSK_BE3C_TGFb1: BioMAP Diversity Plus: BE3C Assay for Transforming growth factor beta 1 (TGFb1) Biomarker Activity (AID 2283036;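 further: TGF-b1 protein level measured by ELISA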)
Conditions: primary human bronchial epithelial cells; actives raise or lower the signal
Active and inactive are the calls of the source. How the source made its calls: active means hit-call score of the fitted dose curve at least 0.9, where 1 is the maximum; inactive means score below 0.9.
Pick one and only one: active, inactive

Write down the call the test reported for this molecule. Item: CC1COC(Cn2cncn2)(c2ccc(Oc3ccc(Cl)cc3)cc2Cl)O1 (stereo unspecified)
inactive

Write down the call the test reported for this molecule. Item: "COC(=O)C=C(C)OP(=O)(OC)OC"
inactive

* * *

Molecular target: mouse Peroxisome Proliferator-activated Receptor gamma (PPARg), Pparg (gene 19016)
Experiment: ATG_mPPARg_XSP1: Attagene TRANS-FACTORIAL Multi-Species (XSP1) HepG2 Assay for mouse Peroxisome Proliferator-activated Receptor gamma (PPARg) (AID 2283802)
Inconclusive results are not listed. Calls of active or inactive are those of the source. Rule for the calls: active = hit-call score of the fitted dose curve at least 0.9, where 1 is the maximum; inconclusive = response in the unintended direction; inactive = score below 0.9.
Pick one and only one: active, inactive

Sample answers from the record:
CC(C)Oc1cc(-n2nc(C(C)(C)C)oc2=O)c(Cl)cc1Cl; active
CON(C)C(=O)Nc1ccc(Cl)c(Cl)c1; active
COC(=O)N(OC)c1ccccc1COc1ccn(-c2ccc(Cl)cc2)n1; active
COc1ccc(C(c2ccc(OC)cc2)C(Cl)(Cl)Cl)cc1; inactive
CCCCOC(=O)c1ccccc1C(=O)OCCCC; active

Then there is this molecule:
Write down the call the test reported for this molecule. Item: "CCCCNC(=O)OCC#CI"
active
